procedure_text: Cell Viability - LYMP2-016 (AID 984);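 also: cells exposed to compound for 24 hours at 37 °C; nearly all actives have a fitted effect of over 55% in size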
applied_conditions: LYMP2-016 lymphoblastoid cell viability, qHTS; series mostly up to 92.2 µM
Inconclusive results are not listed. Calls of active or inactive are those of the source. Calls follow the shape of the dose curve; as a rule, active = well fitted cell-killing curve with a large enough effect; inconclusive = small, poorly fitted or top-dose-only effect; inactive = flat fitted curve, though single readings scatter.
Choose the fitting class; nothing outside active, inactive is accepted.

Asked: Entry NCCNCCNCCNCCN : call = ?
Given back: inactive

Asked: Entry Cc1cc2nc3c(=O)[nH]c(=O)nc-3n(C[C@H](O)[C@H](O)[C@H](O)CO)c2cc1C : call = ?
Given back: inactive

Asked: Entry C[C@]12C[C@H](O)[C@H]3[C@@H](CCC4=CC(=O)CC[C@@]43C)[C@@H]1CC[C@@H]2C(=O)CO : call = ?
Given back: inactive

Asked: Entry Cc1c(O)cccc1C(=O)N[C@@H](CSc1ccccc1)[C@H](O)CN1C[C@H]2CCCC[C@H]2C[C@H]1C(=O)NC(C)(C)C : call = ?
Given back: active

Asked: Entry Oc1cccc(O)c1 : call = ?
Given back: inactive
